# System: Staphylococcus epidermidis 831 (MRSE)
# Assay overview: MIC by broth microdilution, SE 831
# Assay type: cell-based
# Stated conditions: Staphylococcus epidermidis, MRSE, read-out: MIC SE 831
# Procedure: Antibacterial activity in vitro is investigated by broth microdilution method in Meuller-Hinton broth as recommended by NCCLS. All strains tested are clinical isolates either sensitive or resistant to natural glycopeptides. MIC values were determined using the CLSI-recommended broth microdilution procedure (Clinical and Laboratory Standards Institute, Methods for Dilution Antimicrobial Susceptibility Tests for Bacteria That Grow Aerobically; Approved Standard-Seventh Edition.). […]
Each entry below lists one item and its recorded MIC value.
Quantity: MIC

>>> endpoint_result("CCCCCOCCNC(=O)Oc1cc(O)c2c(c1)[C@@H](C(=O)NC1C3CC4CC(C3)CC1C4)NC(=O)[C@H]1NC(=O)[C@H](NC(=O)[C@@H]3NC(=O)[C@H](CC(N)=O)NC(=O)[C@H](NC(=O)[C@@H](CC(C)C)NC)[C@H](O)c4ccc(c(Cl)c4)Oc4cc3cc(c4O[C@@H]3O[C@H](CO)[C@@H](O)[C@H](O)[C@H]3O[C@H]3C[C@](C)(N)[C@H](O)[C@H](C)O3)Oc3ccc(cc3Cl)[C@H]1O)c1ccc(O)c-2c1 (some centres unmarked)")
"0.01 to 0.5 µg/mL"
>>> endpoint_result("CCCCCOc1ccc(CCNC(=O)Oc2cc(O)c3c(c2)[C@@H](C(=O)NC2C4CC5CC(C4)CC2C5)NC(=O)[C@H]2NC(=O)[C@H](NC(=O)[C@@H]4NC(=O)[C@H](CC(N)=O)NC(=O)[C@H](NC(=O)[C@@H](CC(C)C)NC)[C@H](O)c5ccc(c(Cl)c5)Oc5cc4cc(c5O[C@@H]4O[C@H](CO)[C@@H](O)[C@H](O)[C@H]4O[C@H]4C[C@](C)(N)[C@H](O)[C@H](C)O4)Oc4ccc(cc4Cl)[C@H]2O)c2ccc(O)c-3c2)cc1 (some centres unmarked)")
"0.01 to 0.5 µg/mL"
>>> endpoint_result("CCCCCOc1ccc(CCNC(=O)Oc2cc(O)c3c(c2)[C@@H](C(=O)O)NC(=O)[C@H]2NC(=O)[C@H](NC(=O)[C@@H]4NC(=O)[C@H](CC(N)=O)NC(=O)[C@H](NC(=O)[C@@H](CC(C)C)NC)[C@H](O)c5ccc(c(Cl)c5)Oc5cc4cc(c5O[C@@H]4O[C@H](CO)[C@@H](O)[C@H](O)[C@H]4O[C@H]4C[C@](C)(N)[C@H](O)[C@H](C)O4)Oc4ccc(cc4Cl)[C@H]2O)c2ccc(O)c-3c2)cc1 (atropisomer, axis not shown)")
"0.01 to 0.5 µg/mL"
>>> endpoint_result("CCCCCCc1ccc(S(=O)(=O)NCCCCCCNC(=O)Oc2cc(O)c3c(c2)[C@@H](C(=O)O)NC(=O)[C@H]2NC(=O)[C@H](NC(=O)[C@@H]4NC(=O)[C@H](CC(N)=O)NC(=O)[C@H](NC(=O)[C@@H](CC(C)C)NC)[C@H](O)c5ccc(c(Cl)c5)Oc5cc4cc(c5O[C@@H]4O[C@H](CO)[C@@H](O)[C@H](O)[C@H]4O[C@H]4C[C@](C)(N)[C@H](O)[C@H](C)O4)Oc4ccc(cc4Cl)[C@H]2O)c2ccc(O)c-3c2)cc1 (atropisomer, axis not shown)")
"0.01 to 0.5 µg/mL"
>>> endpoint_result("CCOc1ccc(NC(=O)Oc2cc(O)c3c(c2)[C@@H](C(=O)NC2C4CC5CC(C4)CC2C5)NC(=O)[C@H]2NC(=O)[C@H](NC(=O)[C@@H]4NC(=O)[C@H](CC(N)=O)NC(=O)[C@H](NC(=O)[C@@H](CC(C)C)NC)[C@H](O)c5ccc(c(Cl)c5)Oc5cc4cc(c5O[C@@H]4O[C@H](CO)[C@@H](O)[C@H](O)[C@H]4O[C@H]4C[C@](C)(N)[C@H](O)[C@H](C)O4)Oc4ccc(cc4Cl)[C@H]2O)c2ccc(O)c-3c2)cc1 (some centres unmarked)")
"1 to 2 µg/mL"

The measured values listed here are drawn from patent US20110015119A1.
